System: PC-9
Assay: Cytotoxicity against human PC-9 cells harboring EGFR mutant assessed as inhibition of cell growth
Format: functional, cell-based
The reader will find reported log10 IC50 values listed item by item below.
Hello, just confirming the data are log10 of IC50 with units of nM.

Examples from the recorded data:
entry_smiles | log10 IC50
Fc1ccc2ncnc(NCCc3ccc(-c4ccc(C(F)(F)F)cc4)cc3)c2c1 | 2.12
Fc1cccc(-c2ccc(CCNc3ncnc4ccc(F)cc34)cc2)c1 | 2.79
Fc1ccc2ncnc(NCCc3ccc(-c4cccc5ccccc45)cc3)c2c1 | 2.46
Fc1ccc2ncnc(NCCc3ccc(-c4ccc(Cl)cc4)cc3)c2c1 | 1.64

We now examine a further compound.
Observed log10 IC50 on PC-9, entry Fc1ccc2ncnc(NCCc3ccc(-c4ccc5ccccc5c4)cc3)c2c1 , equals 2.00
